Biological target: Mitogen-activated protein kinase kinase kinase kinase 5 (Homo sapiens, UniProt Q9Y4K4); note: in the data inactive means no Kd found up to 30 µM
Sequence (Q9Y4K4 whole entry): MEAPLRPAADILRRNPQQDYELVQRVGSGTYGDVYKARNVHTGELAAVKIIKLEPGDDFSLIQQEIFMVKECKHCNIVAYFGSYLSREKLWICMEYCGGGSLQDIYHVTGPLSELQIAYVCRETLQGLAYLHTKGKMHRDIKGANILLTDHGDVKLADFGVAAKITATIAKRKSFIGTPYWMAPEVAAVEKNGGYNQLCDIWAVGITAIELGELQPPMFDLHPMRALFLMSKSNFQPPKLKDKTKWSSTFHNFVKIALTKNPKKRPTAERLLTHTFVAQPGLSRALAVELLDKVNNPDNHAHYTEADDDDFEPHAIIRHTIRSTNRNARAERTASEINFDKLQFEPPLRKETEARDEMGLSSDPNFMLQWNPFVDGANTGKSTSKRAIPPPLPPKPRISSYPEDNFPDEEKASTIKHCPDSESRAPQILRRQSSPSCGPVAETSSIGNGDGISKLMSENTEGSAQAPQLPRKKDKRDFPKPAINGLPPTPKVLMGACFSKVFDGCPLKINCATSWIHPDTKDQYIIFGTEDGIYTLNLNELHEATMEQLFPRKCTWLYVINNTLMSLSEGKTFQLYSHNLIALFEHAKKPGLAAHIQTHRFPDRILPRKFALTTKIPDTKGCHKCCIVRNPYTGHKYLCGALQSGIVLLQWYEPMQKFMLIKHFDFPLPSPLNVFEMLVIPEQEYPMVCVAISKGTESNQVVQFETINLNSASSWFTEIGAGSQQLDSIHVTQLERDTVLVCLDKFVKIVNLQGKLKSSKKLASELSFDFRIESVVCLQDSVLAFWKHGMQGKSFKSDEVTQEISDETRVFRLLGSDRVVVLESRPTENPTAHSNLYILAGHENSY
Where a name gives a salt, the structure may show the parent alone. The source made the active and inactive calls.
Classes used: active, inactive

molecule	measurement-target	group-label
C[C@@H](Oc1cc(C(=O)Nc2ccc(C(=O)N3CCN(C)CC3)cc2)nnc1N)c1c(Cl)ccc(F)c1Cl	Mitogen-activated protein kinase kinase kinase kinase 5 (Homo sapiens, UniProt Q9Y4K4)	active
COCc1c(-c2ccc(NC(=O)Nc3cc(C(F)(F)F)ccc3F)c(F)c2)c2c(N)ncnn2c1CN1CCOCC1	Mitogen-activated protein kinase kinase kinase kinase 5 (Homo sapiens, UniProt Q9Y4K4)	inactive
O=C(Nc1nc2cccc(-c3ccc(CN4CCS(=O)(=O)CC4)cc3)n2n1)C1CC1 [FILGOTINIB]	Mitogen-activated protein kinase kinase kinase kinase 5 (Homo sapiens, UniProt Q9Y4K4)	inactive
Cc1cc(C(=O)NOCCO)c(Nc2ccc(I)cc2F)n(C)c1=O [AZD-8330]	Mitogen-activated protein kinase kinase kinase kinase 5 (Homo sapiens, UniProt Q9Y4K4)	inactive
COc1cc2ncnc(Oc3cccc(NC(=O)Nc4cc(C(C)(C)C(F)(F)F)on4)c3)c2cc1OC [CEP-32496]	Mitogen-activated protein kinase kinase kinase kinase 5 (Homo sapiens, UniProt Q9Y4K4)	active
CCS(=O)(=O)N1CCN(c2ccc(Nc3ncc(C(N)=O)c(NC4CC4)n3)cc2)CC1 [Cerdulatinib Hydrochloride]	Mitogen-activated protein kinase kinase kinase kinase 5 (Homo sapiens, UniProt Q9Y4K4)	active
C=CC(=O)N1CCC[C@H](n2c(=O)n(-c3ccc(Oc4ccccc4)cc3)c3c(N)ncnc32)C1	Mitogen-activated protein kinase kinase kinase kinase 5 (Homo sapiens, UniProt Q9Y4K4)	inactive
COc1c(OCCCN2CCOCC2)ccc2c1N=C(NC(=O)c1cnc(N)nc1)N1CCN=C21 [COPANLISIB]	Mitogen-activated protein kinase kinase kinase kinase 5 (Homo sapiens, UniProt Q9Y4K4)	inactive
CCNC(=O)C#Cc1ccc2c(c1)NC(=O)/C2=C(\Nc1ccc(CN(C)C)cc1)c1ccccc1	Mitogen-activated protein kinase kinase kinase kinase 5 (Homo sapiens, UniProt Q9Y4K4)	active
C[C@@H](NC(=O)c1ncnc(N)c1Cl)c1ncc(C(=O)Nc2cc(C(F)(F)F)c(Cl)cn2)s1 [TOVORAFENIB]	Mitogen-activated protein kinase kinase kinase kinase 5 (Homo sapiens, UniProt Q9Y4K4)	inactive
Cn1cc(-c2cnn3c(N)c(Br)c([C@@H]4CCCNC4)nc23)cn1 [SCH-900776]	Mitogen-activated protein kinase kinase kinase kinase 5 (Homo sapiens, UniProt Q9Y4K4)	inactive
Cc1nc2cc(-n3ncc(C(=O)c4cc5ccccc5[nH]4)c3N)ccc2[nH]1 [FGFR INHIBITOR DEBIO 1347]	Mitogen-activated protein kinase kinase kinase kinase 5 (Homo sapiens, UniProt Q9Y4K4)	inactive
CC(C)c1cc(CNc2nc(Nc3cc(C4CC4)[nH]n3)cc(N3CCN(C)CC3)n2)on1 [XL-228]	Mitogen-activated protein kinase kinase kinase kinase 5 (Homo sapiens, UniProt Q9Y4K4)	active
CNC(=O)c1nn(C)c2c1C(C)(C)Cc1cnc(Nc3ccc(N4CCN(C)CC4)cc3)nc1-2 [MILCICLIB]	Mitogen-activated protein kinase kinase kinase kinase 5 (Homo sapiens, UniProt Q9Y4K4)	active
COc1ncc(-c2ccc3nccc(-c4ccnnc4)c3c2)cc1NS(=O)(=O)c1ccc(F)cc1F [OMIPALISIB]	Mitogen-activated protein kinase kinase kinase kinase 5 (Homo sapiens, UniProt Q9Y4K4)	inactive

* * *

Quick record: Kd, Inhibitor of nuclear factor kappa-B kinase subunit epsilon (Homo sapiens).
Activity calls are given as the source filed them.

compound	Kd
C[C@H]1CNCCCN1S(=O)(=O)c1cccc2cncc(F)c12	> 30 µM (inactive)
CCS(=O)(=O)c1cccc(-c2cc(C(=O)NC3CCN(C)CC3)c(C)c3[nH]c4ncc(C)cc4c23)c1 [TAK-901]	> 30 µM (inactive)
COc1cc2c(Nc3ccc(Cl)c(Cl)c3F)ncnc2cc1OC[C@@H]1C[C@@H]2CN(C)C[C@@H]2C1 [TESEVATINIB]	> 30 µM (inactive)
CO[C@H]1C[C@@H]2CC[C@@H](C)[C@@](O)(O2)C(=O)C(=O)N2CCCC[C@H]2C(=O)O[C@H]([C@H](C)C[C@@H]2CC[C@@H](O)[C@H](OC)C2)CC(=O)[C@H](C)/C=C(\C)[C@@H](O)[C@@H](OC)C(=O)[C@H](C)C[C@H](C)/C=C/C=C/C=C/1C [SIROLIMUS]	> 30 µM (inactive)
Cc1cnc(NC(=O)Nc2cc(Br)c(C)cc2OC[C@@H]2CNCCO2)cn1 [RABUSERTIB]	> 30 µM (inactive)
O=C(Nc1nc2cccc(-c3ccc(CN4CCS(=O)(=O)CC4)cc3)n2n1)C1CC1 [FILGOTINIB]	> 30 µM (inactive)
O=c1[nH]ccc2cc(OC3CCNCC3)ccc12 [SAR-407899 FREE BASE]	> 30 µM (inactive)

* * *

Target: Ribosyldihydronicotinamide dehydrogenase [quinone] (Homo sapiens); note: in the data inactive means no Kd found up to 30 µM
Sequence (P16083 whole entry): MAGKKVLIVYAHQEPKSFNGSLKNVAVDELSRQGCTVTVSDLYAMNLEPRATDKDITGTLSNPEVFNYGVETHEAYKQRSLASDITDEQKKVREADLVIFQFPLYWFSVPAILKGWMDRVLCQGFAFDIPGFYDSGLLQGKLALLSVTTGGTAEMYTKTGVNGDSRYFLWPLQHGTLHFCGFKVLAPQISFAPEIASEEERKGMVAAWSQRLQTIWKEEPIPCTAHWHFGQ
Active and inactive are the calls of the source.
The reader will find reported Kd values listed item by item below.

compound-structure-string	Kd
CO[C@H]1C[C@@H]2CC[C@@H](C)[C@@](O)(O2)C(=O)C(=O)N2CCCC[C@H]2C(=O)O[C@H]([C@H](C)C[C@@H]2CC[C@@H](O)[C@H](OC)C2)CC(=O)[C@H](C)/C=C(\C)[C@@H](O)[C@@H](OC)C(=O)[C@H](C)C[C@H](C)/C=C/C=C/C=C/1C	> 30 µM (inactive)
CN1CCN(CCOc2cc(OC3CCOCC3)c3c(Nc4c(Cl)ccc5c4OCO5)ncnc3c2)CC1	> 30 µM (inactive)
CCn1c(C(=O)N(C2CC2)C2CC2)cc2c3c(ncn3C)c(Nc3cc(C)n(C)n3)nc21	5.86 µM (active)
Cn1ncc(Cl)c1-c1cc(C(=O)N[C@H](CN)Cc2ccc(F)c(F)c2)oc1Cl	> 30 µM (inactive)
COc1c(OCCCN2CCOCC2)ccc2c1N=C(NC(=O)c1cnc(N)nc1)N1CCN=C21	> 30 µM (inactive)
Cc1cc(Nc2ncnc3ccc(NC4=NC(C)(C)CO4)cc23)ccc1Oc1ccn2ncnc2c1	2.46 µM (active)

* * *

Quick record: Kd, UniProt:P29317.
Sequence (P29317 whole entry): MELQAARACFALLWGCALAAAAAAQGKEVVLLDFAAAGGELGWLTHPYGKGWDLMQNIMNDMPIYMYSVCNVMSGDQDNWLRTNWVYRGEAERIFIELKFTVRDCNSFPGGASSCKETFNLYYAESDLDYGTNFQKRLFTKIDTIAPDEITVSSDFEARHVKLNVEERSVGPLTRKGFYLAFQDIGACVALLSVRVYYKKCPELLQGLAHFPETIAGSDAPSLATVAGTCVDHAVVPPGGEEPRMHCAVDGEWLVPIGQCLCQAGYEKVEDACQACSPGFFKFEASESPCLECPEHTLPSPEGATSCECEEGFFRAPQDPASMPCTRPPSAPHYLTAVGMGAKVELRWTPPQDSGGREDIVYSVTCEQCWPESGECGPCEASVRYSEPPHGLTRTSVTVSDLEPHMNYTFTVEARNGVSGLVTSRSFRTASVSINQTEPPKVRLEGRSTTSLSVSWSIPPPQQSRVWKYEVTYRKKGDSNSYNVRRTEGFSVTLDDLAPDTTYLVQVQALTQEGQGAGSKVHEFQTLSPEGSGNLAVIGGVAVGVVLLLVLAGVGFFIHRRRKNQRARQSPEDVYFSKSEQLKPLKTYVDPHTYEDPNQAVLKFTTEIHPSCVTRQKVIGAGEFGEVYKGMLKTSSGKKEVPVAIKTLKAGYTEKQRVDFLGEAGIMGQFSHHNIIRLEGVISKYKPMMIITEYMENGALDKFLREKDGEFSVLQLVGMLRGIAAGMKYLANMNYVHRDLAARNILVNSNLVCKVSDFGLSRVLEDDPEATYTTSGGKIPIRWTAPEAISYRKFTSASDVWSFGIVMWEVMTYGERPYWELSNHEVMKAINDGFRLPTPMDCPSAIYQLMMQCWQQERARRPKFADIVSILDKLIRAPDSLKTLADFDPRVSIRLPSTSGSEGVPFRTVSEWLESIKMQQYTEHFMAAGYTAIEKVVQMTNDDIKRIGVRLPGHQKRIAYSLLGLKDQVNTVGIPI
Active and inactive are the calls of the source.

molecule	Kd
CCOc1cc2ncc(C#N)c(Nc3ccc(F)c(Cl)c3)c2cc1NC(=O)/C=C/CN(C)C [PELITINIB]	> 30 µM (inactive)
COCC(=O)NC/C=C/c1ccc2ncnc(Nc3ccc(Oc4ccc(C)nc4)c(C)c3)c2c1 [CP-724714]	> 30 µM (inactive)
Cn1cnc2c(F)c(Nc3ccc(Br)cc3F)c(C(=O)NOCCO)cc21 [BINIMETINIB]	> 30 µM (inactive)

* * *

Biological target: Breakpoint cluster region protein (Homo sapiens); note: in the data inactive means no Kd found up to 30 µM
Sequence (P11274 whole entry): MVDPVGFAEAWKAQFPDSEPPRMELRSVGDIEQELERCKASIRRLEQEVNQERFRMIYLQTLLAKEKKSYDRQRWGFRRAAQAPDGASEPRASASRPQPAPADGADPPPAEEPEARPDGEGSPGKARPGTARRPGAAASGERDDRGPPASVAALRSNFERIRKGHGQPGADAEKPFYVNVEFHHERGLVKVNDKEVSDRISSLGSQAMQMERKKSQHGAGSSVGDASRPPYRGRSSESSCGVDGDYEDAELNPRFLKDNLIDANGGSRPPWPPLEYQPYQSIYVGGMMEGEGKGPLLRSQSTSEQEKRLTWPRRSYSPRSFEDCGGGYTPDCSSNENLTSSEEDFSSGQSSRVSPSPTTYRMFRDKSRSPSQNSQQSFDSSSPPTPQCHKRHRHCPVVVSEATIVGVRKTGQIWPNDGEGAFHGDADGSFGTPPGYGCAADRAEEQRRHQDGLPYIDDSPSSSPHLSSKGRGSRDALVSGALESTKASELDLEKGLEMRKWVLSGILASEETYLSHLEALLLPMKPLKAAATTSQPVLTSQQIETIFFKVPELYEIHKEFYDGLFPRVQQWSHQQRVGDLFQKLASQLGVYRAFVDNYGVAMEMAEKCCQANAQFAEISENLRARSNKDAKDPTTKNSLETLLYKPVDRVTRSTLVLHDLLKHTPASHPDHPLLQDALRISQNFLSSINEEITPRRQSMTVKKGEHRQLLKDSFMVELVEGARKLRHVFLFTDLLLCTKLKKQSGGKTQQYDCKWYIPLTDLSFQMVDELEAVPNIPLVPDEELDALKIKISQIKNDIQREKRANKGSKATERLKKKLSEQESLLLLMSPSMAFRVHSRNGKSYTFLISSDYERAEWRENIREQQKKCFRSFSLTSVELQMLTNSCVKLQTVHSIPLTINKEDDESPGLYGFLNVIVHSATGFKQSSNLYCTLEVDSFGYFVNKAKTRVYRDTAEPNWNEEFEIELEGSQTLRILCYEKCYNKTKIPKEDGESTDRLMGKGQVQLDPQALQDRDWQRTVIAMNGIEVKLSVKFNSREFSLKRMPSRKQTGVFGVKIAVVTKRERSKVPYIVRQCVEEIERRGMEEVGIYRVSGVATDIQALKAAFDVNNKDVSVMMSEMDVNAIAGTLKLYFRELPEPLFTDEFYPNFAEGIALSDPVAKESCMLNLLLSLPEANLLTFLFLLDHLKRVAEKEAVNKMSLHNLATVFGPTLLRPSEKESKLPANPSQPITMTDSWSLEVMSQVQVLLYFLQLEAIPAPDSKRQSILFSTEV
Calls of active or inactive are those of the source.
Classes used: active, inactive

compound	group-label
Cn1ncc(Cl)c1-c1cc(C(=O)N[C@H](CN)Cc2ccc(F)c(F)c2)oc1Cl [UPROSERTIB]	inactive
Cc1cc(Nc2ncc(Cl)c(Nc3ccccc3S(=O)(=O)C(C)C)n2)c(OC(C)C)cc1C1CCNCC1 [CERITINIB]	inactive
CCOc1cc2ncc(C#N)c(Nc3ccc(F)c(Cl)c3)c2cc1NC(=O)/C=C/CN(C)C [PELITINIB]	active
C[C@@H](NC(=O)c1ncnc(N)c1Cl)c1ncc(C(=O)Nc2cc(C(F)(F)F)c(Cl)cn2)s1 [TOVORAFENIB]	active
CCNC(=O)C#Cc1ccc2c(c1)NC(=O)/C2=C(\Nc1ccc(CN(C)C)cc1)c1ccccc1	inactive
Cn1cnc2c(F)c(Nc3ccc(Br)cc3F)c(C(=O)NOCCO)cc21 [BINIMETINIB]	inactive
C=CC(=O)N1CCC[C@H](n2c(=O)n(-c3ccc(Oc4ccccc4)cc3)c3c(N)ncnc32)C1	inactive
COc1ccc(S(=O)(=O)N(C(C)=O)c2ccccc2/C=C/c2cc[n+]([O-])cc2)cc1 [HMN-214]	inactive

Reference for the values: ChEMBL document CHEMBL3991601
